Compiled from multiple publications: pKi readings for 5-hydroxytryptamine receptor 1B (Homo sapiens).
pKi: −log10 of the molar value.
attribute_measured: pKi

Worked examples follow.
> print(dat)
                                   molecule                           target.of.assay  value
1  COc1cc2c(cc1N1C[C@@H](C)N(C)[C@@H](C)C1)N(C(=O)Nc1cccc(Cl)c1F)CC2  5-hydroxytryptamine receptor 1B (Homo sapiens)   8.10
2  COc1ccc(S(=O)(=O)N2CC=C(c3ccc4[nH]cc(CCN5CCCC5)c4c3)CC2)cc1  5-hydroxytryptamine receptor 1B (Homo sapiens)   6.85
3                       CNCCOc1cccc(Cl)c1Cl  5-hydroxytryptamine receptor 1B (Homo sapiens)   7.44

[P] COc1ccc(NC(=O)N2CCN(c3cccc4c3CCCC4)CC2)cc1N1CCN(C)CC1
[Q] COc1ccc(CN2CCN(CCOc3cccc4nc(C)ccc34)CC2)cc1[N+](=O)[O-]
Compare P and Q by numeric pKi and name the larger one. Identify your pick by its label.
P
(P: 9.30, Q: 6.50)

---

Compiled from multiple publications: Ki readings for UniProt:P28222.
attribute_measured: Ki (nM)

Worked examples follow.
compound	target_of_assay	Ki [nM]
CCOc1ccc(CC(=O)N2CCc3cc(OC)c(N4C[C@@H](C)N(C)[C@@H](C)C4)cc32)cc1Cl	UniProt:P28222	12.6
CCc1c(C(=O)N2CCc3cc4ccnc(N5CCN(C)CC5)c4cc32)cnn1-c1ccc(C#N)cc1	UniProt:P28222	1
O=C(Nc1ccc2[nH]cc(C3CCN(CCCCCCCCCN4CCC(c5c[nH]c6ccc(NC(=O)c7ccc(F)cc7)cc56)CC4)CC3)c2c1)c1ccc(F)cc1	UniProt:P28222	126
O=C(Nc1ccc2[nH]cc(C3CCN(Cc4cccc(CN5CCC(c6c[nH]c7ccc(NC(=O)c8ccc(F)cc8)cc67)CC5)c4)CC3)c2c1)c1ccc(F)cc1	UniProt:P28222	453
Cc1ccc2c(OCCN3CCN(Cc4ccc(O)c(N)c4)CC3)cccc2n1	UniProt:P28222	251
CCCN(CCCCN1C(=O)CC(C)(C)CC1=O)C1CCc2ccc3[nH]cc(C=O)c3c2C1 (stereo not given)	UniProt:P28222	115

[P] O=S(=O)(c1cccc2ccccc12)N1CC=C(c2ccc3[nH]cc(CCN4CCCC4)c3c2)CC1
[Q] Cc1ccc2c(OCCN3CCC(Cc4cccc(C5CCN(C)CC5)c4)CC3)cccc2n1
For the pair P and Q , which member has the lower Ki number? Identify your pick by its label.
Q
(Q: 5.01 nM, P: 410 nM)

---

Compiled from multiple publications: Ki readings for 5-hydroxytryptamine receptor 1B (Homo sapiens, UniProt P28222).
attribute_measured: Ki (µM)

> print(dat)
                                   molecule                           target.of.assay  attribute.measured   value
1  CN1CCC(c2c[nH]c3ccc(NC(=O)C4CC4)nc23)CC1  5-hydroxytryptamine receptor 1B (Homo sapiens, UniProt P28222)                  Ki     1.7
2  CC1CC(N2CCN(C3CCc4ccc(OCc5noc(-c6ccc(Cl)cc6)n5)cc43)CC2)CC1C (centres undefined)  5-hydroxytryptamine receptor 1B (Homo sapiens, UniProt P28222)                  Ki   0.414
3  COc1ccc(NC(=S)N2CC=C(c3ccc4[nH]cc(C[C@H]5CCCN5C)c4c3)CC2)cc1  5-hydroxytryptamine receptor 1B (Homo sapiens, UniProt P28222)                  Ki  0.0024

[1] CCCN(Cc1ccccc1)C1CCc2ccc3[nH]cc(C=O)c3c2C1 (centres undefined)
[2] COc1cc2c(cc1N1C[C@@H](C)N(C)[C@@H](C)C1)N(C(=O)Nc1cccc(C(F)(F)F)c1F)CC2
[3] O=C(Nc1ccc2[nH]cc(C3CCN(CCCCCCN4CCC(c5c[nH]c6ccc(NC(=O)c7ccc(F)cc7)cc56)CC4)CC3)c2c1)c1ccc(F)cc1
[4] COc1cc2c(cc1N1C[C@@H](C)N(C)[C@@H](C)C1)N(C(=O)c1cccc(Cl)c1)CC2
Order the records by Ki, with each subsequent value no larger than the one before. In your reply, arrange the labels in the requested order.
1, 3, 4, 2
(1: 0.992 µM, 3: 0.1 µM, 4: 0.02 µM, 2: 0.00398 µM)

---

Compiled from multiple publications: Ki readings for 5-hydroxytryptamine receptor 1B (Homo sapiens).
attribute_measured: Ki (nM)

Worked examples follow.
> print(dat)
                                   compound  value
1  Cc1ccc2c(N3CCN(CCc4ccc5c(c4)NC(=O)CO5)[C@H](C)C3)cccc2n1   7.94
2  CCCN(CCCOc1cccc(Cl)c1)C1CCc2ccc3[nH]cc(C=O)c3c2C1 (stereo not given)    187
3  CNS(=O)(=O)CCc1ccc2[nH]cc(C3CCN(C)CC3)c2c1    3.3
4  CN1CCC(c2c[nH]c3ccc(NC(=O)C4CCC4)nc23)CC1    380
5  Cc1ccc2c(OCCN3CCC(Cc4cc(F)c5c(c4)NC(=O)CO5)CC3)cc(F)cc2n1    316
6  OCC1(N2CCN(C3CCc4ccc(OCc5noc(-c6ccc(Cl)cc6)n5)cc43)CC2)CCCC1 (stereo not given)   1490
7  Cc1ccc2c(OCCN3CC(COc4ccc5c(c4)NC(=O)CO5)C3)cccc2n1   50.1
8  Cc1ccc2c(OCCN3CCC(Cc4cccc(-c5ccncc5)c4)CC3)cccc2n1   7.94

[a] Cc1ccc2c(OCCN3CCC(Cc4cc(F)c5c(c4)NC(=O)CO5)CC3)cc(Cl)cc2n1
[b] CS(=O)(=O)Oc1ccc2c(c1)CN(CC[C@H]1CC[C@H](NC(=O)/C=C/c3ccc(F)cc3)CC1)C2
[c] Cc1ccc2c(OCCN3CCC(Cc4cccc(-c5ccccc5)c4)CC3)cccc2n1
Order the records by Ki, with each subsequent value no larger than the one before. In your reply, arrange the labels in the requested order.
b, a, c

---

Compiled from multiple publications: pKi readings for 5-hydroxytryptamine receptor 1B (Homo sapiens, UniProt P28222).
pKi: −log10 of the molar value.
attribute_measured: pKi

Worked examples follow.
> print(dat)
                         compound.structure  value
1  Cc1n[nH]c(C)c1-c1ccc(C)c2c(O)cc(C(=O)Nc3ccc(N4CCOCC4)cc3)nc12   8.03
2  CN1CCC(c2c[nH]c3ccc(OS(C)(=O)=O)nc23)CC1   7.60

[1] COc1ccc(NC(=O)N2CCN(c3c(C)cccc3C)CC2)cc1N1CCN(C)CC1
[2] Cn1c(=O)cnn(CCCCN2CCN(c3ccccc3OCCF)CC2)c1=O
[3] CCCN(CCCc1ccccc1)[C@@H]1CCc2ccc3[nH]cc(C=O)c3c2C1
Would you mind ranking these compounds by ascending pKi? In your reply, arrange the labels in the requested order.
2, 3, 1
(2: 6.39, 3: 7.85, 1: 8.89)

---

Compiled from multiple publications: Ki readings for UniProtKB P28222.
attribute_measured: Ki (nM)

> print(dat)
                                    compound  value
 1  Cc1ccc2c(N3CCN(CCc4ccc5c(c4)NC(=O)CO5)CC3C)cccc2n1 (stereo not drawn)      2
 2  CN1CCC(c2n[nH]c3ccc(NC(=O)c4ccc(F)cc4)cc23)CC1   2300
 3  CN1CCC[C@@H]1Cc1c[nH]c2ccc(C3=CCN(S(=O)(=O)c4cccc5ccccc45)CC3)cc12     23
 4  Cc1ccc2c(OCCN3CCC(Cc4cccc(N5CCCS5(=O)=O)c4)CC3)cccc2n1   12.6
 5  CCCN(CCCOc1cccc(Cl)c1)C1CCc2ccc3[nH]ccc3c2C1 (stereo not drawn)    243
 6  COc1cc2c(c(N3CCN(C)CC3)c1)O[C@@H](C(=O)Nc1ccc(N3CCOCC3)cc1)CC2     12
 7  CCCN(CCCc1ccccc1OC)C1CCc2ccc3[nH]cc(C=O)c3c2C1 (stereo not drawn)     11
 8  COc1ccc(NC(=O)N2CCN(c3ccc(SC)cc3)CC2)cc1N1CCN(C)CC1   16.7
 9  CN1CCC(c2c[nH]c3ccc(NC(=O)c4ccncc4)nc23)CC1    330
10  CN1CCC(c2c[nH]c3ccc(NC(=O)c4ccccc4)nc23)CC1    820

[P] CN1CCN(c2nccc3cc4c(cc23)N(C(=O)c2cnn(C)c2C(F)(F)F)CC4)CC1
[Q] Cc1ccc2c(OCCN3CCC(Cc4cccc(N5CCCCC5)c4)CC3)cccc2n1
[R] CN1CCC(c2c[nH]c3ccc(NC(=O)CCCC(=O)Nc4ccc5[nH]cc(C6CCN(C)CC6)c5c4)cc23)CC1
[S] COc1ccc(C2NCCc3c2[nH]c2ccc(Cl)cc32)c(O)c1 (stereo not drawn)
Would you mind ranking these compounds by ascending Ki? In your reply, arrange the labels in the requested order.
R, Q, P, S

[I] CN1CCN(C(=O)C(C)(C)c2ccc(C(=O)Nc3cn4cc(-c5cc(C(C)(C)C)cc(C(C)(C)C)c5)ccc4n3)cc2)CC1
[II] CS(=O)(=O)c1cccc(/C=C/C(=O)N[C@H]2CC[C@H](CCN3CCc4cc(C#N)ccc4C3)CC2)c1.Cl
For the pair I and II , which member has the lower Ki number? Identify your pick by its label.
I

[a] Cc1ccc2c(OCCN3CCN(Cc4ccc(C)c([N+](=O)[O-])c4)CC3)cccc2n1
[b] COc1cc2c(cc1N1C[C@@H](C)N(C)[C@@H](C)C1)N(C(=O)Cc1cccc(F)c1C(F)(F)F)CC2
[c] Cc1ccccc1C(=O)Nc1ccc2[nH]cc(C3CCN(C)CC3)c2n1
Order the records by Ki, with each subsequent value no larger than the one before. In your reply, arrange the labels in the requested order.
c, a, b
(c: 150 nM, a: 79.4 nM, b: 3.16 nM)

[I] Cc1ccc2c(N3CCN(CCc4ccc5c(c4)NC(=O)CO5)CC3)ccc(Cl)c2n1
[II] CN1CCC(c2c[nH]c3ccc(NC(=O)C4CCCC4)nc23)CC1
Compare I and II by numeric Ki and name the larger one. Identify your pick by its label.
II
(II: 640 nM, I: 0.501 nM)

[1] O=C(NCCc1c[nH]c2ccccc12)C1CCN(C(=O)c2ccc(-c3ccccc3)cc2)CC1
[2] CC(=O)Nc1ccc(CN2CCN(CCOc3cccc4nc(C)ccc34)CC2)cc1
Compare 1 and 2 by numeric Ki and name the larger one. Identify your pick by its label.
1
(1: 3410 nM, 2: 1260 nM)

[P] Cc1ccc2c(OC(C)CN3CCC(Cc4ccc5c(c4)NC(=O)CO5)CC3)cccc2n1 (racemic)
[Q] C[C@@H]1CN(c2cccc3cc(F)ccc23)CCN1CC[C@H]1OCCc2cc(C(N)=O)ccc21
For the pair P and Q , which member has the lower Ki number? Identify your pick by its label.
Q
(Q: 91 nM, P: 200 nM)
